# Method: Metabolic stability in liver microsomes (intrinsic clearance)
# Assay type: in vitro ADME
# Particulars: mouse, microsomes, pH 7.4, mouse liver microsomes; read-out: Metabolic Stability (liver microsome intrinsic clearance) Clearance (mouse, μl/min./mg protein)
Reported Endpoint: microsomal CLint at 1 µM (µL/min/mg)
Record the value in µL/min/mg, omitting the unit from your answer.

Solved cases (3 shown):
1. CCc1nc2ccc(F)cn2c1C(=O)NCc1ccc(-c2nc3n(n2)CC[C@H](C(F)(F)F)C3)cc1    11.7
2. CCc1nc2nc(F)ccn2c1C(=O)NCc1ccc(-c2cn3c(n2)CC(C)CC3)cc1 (stereo not shown) [Compound 35ab]    46.4
3. O=C(NCc1ccc(-c2nc3n(n2)CC[C@@H](C(F)(F)F)C3)cc1)c1c(C(F)F)nc2n1CCCC2    16.3

Now look at this one.
Prompt line: Please indicate microsomal CLint at 1 µM recorded for CCc1nc2ncc(C)cn2c1C(=O)NCc1ccc(-c2nc3n(n2)CCC(C(F)(F)F)C3)c(C)c1 (stereo not shown) [Compound 23ab]
Response line: 14.6

###

# Method: Metabolic stability in liver microsomes (intrinsic clearance)
# Type: in vitro ADME
# Particulars: human, microsomes, pH 7.4, human liver microsomes; read-out: Metabolic Stability (liver microsome intrinsic clearance) Clearance (human, μl/min./mg protein)
Reported microsomal CLint at 1 µM values are given for each entry in this list.
Record the value in µL/min/mg, omitting the unit from your answer.

1) CCc1nc2ncc(C)cn2c1C(=O)NCc1ccc(-c2cn3c(n2)CC(C(F)(F)F)CC3)cc1 (stereo not shown) [Compound 3ab]    15

Prompt line: Please indicate microsomal CLint at 1 µM recorded for CCc1nc2ncc(C)cn2c1C(=O)NCc1ccc(-c2cc3n(n2)CCC(C(F)(F)F)C3)cc1 (stereo not shown) [Compound 20ab]
Response line: 36.3

###

Reported Chemical stability data, Vehicle DMSO values are given for each entry in this list.
# Method: HTChem stab assay (chemical stability in buffer pH2, pH4 and pH7 vs DMSO reference)
# Type: physicochemical
# Particulars: reference DMSO solution; 72 h stirring at rt
Record the value in %, omitting the unit from your answer.

Solved cases (5 shown):
1. CCc1nc2n(c1C(=O)NCc1ccc(-c3nc4n(n3)CCC(C(F)(F)F)C4)cc1)CCCC2 (racemic) [Compound 13ab]    100
2. O=C(NCc1ccc(-c2cn3c(n2)CC(C(F)(F)F)CC3)cc1)c1c(C(F)(F)F)nc2ccccn12 (racemic) [Compound 18ab]    98
3. O=C(NCc1ccc(-c2cn3c(n2)CC(C(F)(F)F)CC3)nc1)c1c(C(F)(F)F)nc2ccccn12 (stereo not drawn) [Compound 36ab]    100
4. CCc1nc2cc(F)ccn2c1C(=O)NCc1ccc(-c2nc3n(n2)CCC(C(F)(F)F)C3)cc1 (racemic)    100
5. CCc1nc2ncccn2c1C(=O)NCc1ccc(-c2nc3n(n2)CCC(C(F)(F)F)C3)cc1 (racemic) [Compound 17ab]    100

Now look at this one.
Prompt line: Please indicate Chemical stability data, Vehicle DMSO recorded for O=C(NCc1ccc(-c2nc3n(n2)CCC(C(F)(F)F)C3)cc1)c1c(C(F)F)nc2ccccn12 (racemic) [Compound 14ab]
Response line: 100

###

# Method: Metabolic stability in liver microsomes (intrinsic clearance)
# Assay type: in vitro ADME
# Particulars: mouse, microsomes, pH 7.4, Metabolic Stability Half life (mouse, min.)
Reported half-life at 1 µM values are given for each entry in this list.

Solved cases (7 shown):
1) CCc1nc2ncc(C)cn2c1C(=O)NCc1cc(C)c(-c2nc3n(n2)CCC(C(F)(F)F)C3)cn1 (centres unmarked) [Compound 38]    > 3 h
2) CCc1nc2nc(F)ccn2c1C(=O)NCc1ccc(-c2cn3c(n2)CC(C)CC3)cc1 (centres unmarked) [Compound 35ab]    0.498 h
3) CCc1nc2ncc(C)cn2c1C(=O)NCc1ccc(-c2nc3n(n2)CCC(C)C3)cc1 (centres unmarked) [Compound 4ab]    2.75 h
4) CCc1nc2ncc(C)cn2c1C(=O)NCc1ccc(-c2nc3n(n2)CCC(C)(C)C3)cc1 [Compound 144]    > 3 h
5) CCc1nc2ncc(C)cn2c1C(=O)NCc1ccc(-c2nc3n(n2)CCC(COC)C3)cc1 (centres unmarked) [Compound 102]    > 3 h
6) CCc1nc2ncc(Cl)cn2c1C(=O)NCc1ccc(-c2nc3n(n2)CCC(C(F)(F)F)C3)cc1 (centres unmarked) [Compound 10ab]    > 3 h
7) CCc1nc2ncc(C)cn2c1C(=O)NCc1ccc(-c2nc3n(n2)CCC(C(F)(F)F)C3)cc1 (centres unmarked) [Compound 1ab]    > 3 h

Now look at this one.
Prompt line: Please indicate half-life at 1 µM recorded for O=C(NCc1ccc(-c2nc3n(n2)CC[C@@H](C(F)(F)F)C3)cc1)c1c(C(F)F)nc2n1CCCC2 [Compound 80]
Response line: 1.42 h

###

# Method: HTChem stab assay (chemical stability in buffer pH2, pH4 and pH7 vs DMSO reference)
# Type: physicochemical
# Particulars: 72 h, 50 µM, pH 2
Reported Chemical stability data, Buffer pH2 values are given for each entry in this list.
Record the value in %, omitting the unit from your answer.

Solved cases (6 shown):
1. CCc1nc2nc(N)c(C)cn2c1C(=O)NCc1ccc(-c2nc3n(n2)CCC(C(F)(F)F)C3)cc1 (stereo not shown) [Compound 12ab]    100
2. CCc1nc2ncc(C)cn2c1C(=O)NCc1ccc(-c2nn3c(c2C)CC(C(F)(F)F)CC3)cc1 (stereo not shown) [Compound 21ab]    100
3. CCc1nc2ncc(C)cn2c1C(=O)NCc1ccc(-c2nc3n(n2)CCC(OCCOC)C3)cc1 (stereo not shown) [Compound 30ab]    98
4. CCc1nc2ncc(Cl)cn2c1C(=O)NCc1ccc(-c2nc3n(n2)CCC(C(F)(F)F)C3)cc1 (single isomer, unassigned) [Compound 10a]    84
5. CCc1nc2ncc(C)cn2c1C(=O)NCc1ccc(-c2nc3n(n2)CCC(C)C3)cc1 (stereo not shown)    98
6. CCc1nc2ncc(C)cn2c1C(=O)NCc1ccc(-c2nc3n(n2)CCCC3)c(F)c1 [Compound 32ab]    100

Prompt line: Please indicate Chemical stability data, Buffer pH2 recorded for CCc1nc2nc(F)ccn2c1C(=O)NCc1ccc(-c2cn3c(n2)CC(C)CC3)cc1 (stereo not shown) [Compound 35ab]
Response line: 100

###

# Test system: Mycobacterium tuberculosis strain H37Rv
# Method: Test 2: MIC determination against M. tuberculosis, resazurin fluorescence
# Format: cell-based
# Particulars: Test 2, M. tuberculosis H37Rv
Reported Endpoint: Bacterial activity pMIC50
Quick one: just the number, no unit, thanks!

1. CCc1nc2ncc(Cl)cn2c1C(=O)NCc1ccc(-c2nc3n(n2)CCC(C(F)(F)F)C3)cc1 (single isomer, unassigned) [Compound 10b]    8.207

Prompt line: Please indicate Bacterial activity pMIC50 recorded for O=C(NCc1ccc(-c2nc3n(n2)CCC(C(F)(F)F)C3)cc1)c1c(C(F)(F)F)nc2ncccn12 (single isomer, unassigned) [Compound 2a]
Response line: 7.648

###

# Method: Metabolic stability in liver microsomes (intrinsic clearance)
# Type: in vitro ADME
# Particulars: mouse, microsomes
Reported Metabolic Stability Half life (mouse, min.) values are given for each entry in this list.
Record the value in h, omitting the unit from your answer.

Solved cases (2 shown):
1. O=C(NCc1ccc(-c2nc3n(n2)CCC(C(F)(F)F)C3)cc1)c1c(C(F)(F)F)nc2ncccn12 (single isomer, unassigned) [Compound 2b]    1.87
2. CCc1nc2ncc(C)cn2c1C(=O)NCc1ccc(-c2cn3c(n2)CC(C(F)(F)F)CC3)cc1 (single isomer, unassigned)    0.972

Prompt line: Please indicate Metabolic Stability Half life (mouse, min.) recorded for CCc1nc2ncc(C)cn2c1C(=O)NCc1ccc(-c2nc3n(n2)CCC(C(F)(F)F)C3)cc1 (single isomer, unassigned)
Response line: 2.97

Prompt line: Please indicate Metabolic Stability Half life (mouse, min.) recorded for O=C(NCc1ccc(-c2nc3n(n2)CCC(C(F)(F)F)C3)cc1)c1c(C(F)(F)F)nc2ncccn12 (single isomer, unassigned) [Compound 2a]
Response line: 2.02

Prompt line: Please indicate Metabolic Stability Half life (mouse, min.) recorded for CCc1nc2n(c1C(=O)NCc1ccc(-c3nc4n(n3)CC[C@H](C(F)(F)F)C4)c(F)c1)CCCC2 (single isomer, unassigned)
Response line: 0.885

###

# Method: HTChem stab assay (chemical stability in buffer pH2, pH4 and pH7 vs DMSO reference)
# Type: physicochemical
# Particulars: 72 h, 50 µM, pH 4
Reported Endpoint: Chemical stability data, Buffer pH4 (%)
Record the value in %, omitting the unit from your answer.

1) CCc1nc2ncc(C)cn2c1C(=O)NCc1ccc(-c2nc3n(n2)CCC(OCCOC)C3)cc1 (stereo not shown) [Compound 30ab]    98
2) CCc1nc2ncc(C)cn2c1C(=O)NCc1ccc(-c2nc3n(n2)CCC(C2CC2)C3)cc1 (stereo not shown) [Compound 27ab]    100
3) CCc1nc2ncc(C)cn2c1C(=O)NCc1ccc(-c2nc3n(n2)CCCC3)c(F)c1 [Compound 32ab]    100
4) CCCC1CCn2nc(-c3ccc(CNC(=O)c4c(CC)nc5ncc(C)cn45)cc3)nc2C1 (stereo not shown) [Compound 28ab]    100
5) CCc1nc2ncc(C)cn2c1C(=O)NCc1ccc(-c2nc3n(n2)CCC(OC)C3)cc1 (stereo not shown) [Compound 26ab]    95

Prompt line: Please indicate Chemical stability data, Buffer pH4 recorded for CCc1nc2ncc(Cl)cn2c1C(=O)NCc1ccc(-c2nc3n(n2)CCC(C(F)(F)F)C3)cc1 (stereo not shown) [Compound 10ab]
Response line: 64

Prompt line: Please indicate Chemical stability data, Buffer pH4 recorded for CCc1nc2nc(C)ccn2c1C(=O)NCc1ccc(-c2nc3n(n2)CCC(C(F)(F)F)C3)cc1 (single isomer, unassigned) [Compound 5a]
Response line: 100

Prompt line: Please indicate Chemical stability data, Buffer pH4 recorded for CCc1nc2ncc(C)cn2c1C(=O)NCc1ccc(-c2nc3n(n2)CCC(O)C3)cc1 (stereo not shown) [Compound 29ab]
Response line: 100

Prompt line: Please indicate Chemical stability data, Buffer pH4 recorded for CCc1nc2ncc(C)cn2c1C(=O)NCc1ccc(-c2nc3n(n2)CCC(C(F)(F)F)C3)cc1 (stereo not shown) [Compound 1ab]
Response line: 100

Prompt line: Please indicate Chemical stability data, Buffer pH4 recorded for CCc1nc2nc(N)c(C)cn2c1C(=O)NCc1ccc(-c2nc3n(n2)CCC(C(F)(F)F)C3)cc1 (stereo not shown) [Compound 12ab]
Response line: 100

Each recorded value in this set is attributed to patent US20250034171A1.
